This collection of values is drawn from PubChem BioAssay (NCI).

system: EKVX NSCLC; test: NCI tumour cell line growth inhibition, 48 h; in the data active means GI50 below about 0.43 µM; inactive means the rest
Pick one and only one: active, inactive

Solved cases below.
Compound	Assigned category
Cc1ccc(-c2nc3cc(Cl)c(Cl)cc3nc2C#N)cc1	inactive
CC(=O)[CH-]C(=O)c1ccccc1.CC(=O)[CH-]C(=O)c1ccccc1.CC(C)CCC[C@H](C)C1CCC2[C@@H]3CC=C4C[C@@H]([O-])CC[C@]4(C)C3CC[C@@]21C.CC(C)CCC[C@H](C)C1CCC2[C@@H]3CC=C4C[C@@H]([O-])CC[C@]4(C)C3CC[C@@]21C.Cl.[Ti+4] (stereo partly specified)	inactive
COc1ccccc1/C=C/C1=C(C)CCC(c2ccccc2OC)C1C (stereo unspecified)	active
Cc1ccc(-c2nc(N3CCNCC3)c3oc(-c4ccccc4)nc3n2)cc1	inactive

What outcome does the record of this test show for `O=C(Nc1ccccc1C(F)(F)F)c1ccc(NC2=C(Cl)C(=O)N(Cc3ccccc3)C2=O)cc1` ?
inactive

What was the test verdict on `O=C(COc1ccc(OCC(=O)N2C(=O)CN(c3ccccc3)C2=S)cc1)N1C(=O)CN(c2ccccc2)C1=S` ?
inactive

GET /call?item= `O=C1c2cccnc2C(=O)c2c1c(C(=O)NCCn1ccnc1)c1ccccn21` returns the recorded outcome of this test.
inactive

Hey, what did the test say about `COc1ccc(-c2[nH]nc(N)c2-c2cc(OC)c3c(c2)OCO3)cc1` ?
inactive

What outcome does the record of this test show for `COc1cc(/C=C/C(=O)/C=C/c2cc3ccc(Cl)cc3n(Cc3ccccc3)c2=O)ccc1O` ?
inactive

GET /call?item= `CCCCCCCCCCCCCCCCCCOc1ccccc1CC(=O)OCC[N+](CC)(CC)CC` returns the recorded outcome of this test.
inactive

# outcome recorded in this test, key = `C=C1C(=O)O[C@H]2[C@H]1CC/C(Cn1cc(-c3cccc(Cl)c3)nn1)=C\CC[C@@]1(C)O[C@@H]21`
inactive

* * *

test system: HCT-116 colon; assay: NCI tumour cell line growth inhibition, 48 h
Property: TGI

Examples with their reported TGI follow.
> print(dat)
                                   compound  assay.result
1  CCc1cc2c(c3c1CCCC3)CC1(Cc3ccc(C(=O)OC)cc3C1)C2 (stereo not drawn)      > 100 µM
2                    COc1cccc2nc3ccccc3nc12      > 100 µM
3  CC(C)[Si]1(C(C)C)OCC2OC(n3c(C(=O)c4ccccc4)cc(=O)[nH]c3=O)CC2O[Si](C(C)C)(C(C)C)O1 (stereo not drawn)       9.95 µM
4           CCN(CC)C(=S)SC1C(=O)NC(=O)NC1=O      > 100 µM
5  CC(=O)Oc1c(OC(C)C)c(C)c(O[Si](C(C)C)(C(C)C)C(C)C)c2[nH]c3ccccc3c12      > 100 µM

// returns reported TGI for input `ClCc1ccc(Cn2cnc3c(Cl)ncnc32)cc1`
17.4 µM

Which TGI is reported for this compound? `NC(=O)c1nnsc1NN=O`
> 100 µM

Requested field: TGI. Item: `CCOc1ccc(/C=C(\Cl)c2ccc(OC)cc2)cc1`
> 100 µM

Any idea what TGI was measured for `CCOC(=O)c1c(-c2cccc(Cl)c2)c(C(=O)OC)c(C)c2sc(C=O)nc12` ?
21.1 µM

What TGI value was documented for this compound, CCN(CC)CCC1(C2CCCCC2)CCC(=O)NC1=O (stereo not drawn) ?
> 100 µM

What value of measured TGI is listed for `CC1(C)S[C@H](CN)N[C@H]1C(=O)OC(c1ccccc1)c1ccccc1` ?
> 100 µM

Looking for the measured TGI of CN(C)C=NC1CCC(C(C)(C)C)CC1 (stereo not drawn) , can you help?
31.9 µM

// returns reported TGI for input `O=C(/C=C/C(Cl)(Cl)Cl)Nc1ccc(Cl)cc1`
17.6 µM

Need TGI of `COc1cc(/C=C/C(=O)/C=C/c2cc3ccc(Cl)cc3n(Cc3ccccc3)c2=O)ccc1O` , thanks.
2.15 µM

Looking for the measured TGI of `CCCCNC(=NCc1ccccc1)NC#N` , can you help?
> 100 µM
